All figures here come from ChEMBL document CHEMBL4842350.

assay: Unbound fraction in Balb/C mouse blood at 100 to 1000 ng/ml by LC-MS/MS-based rapid equilibrium dialysis method; format: ADME, tissue-based; settings: dose 100-1000 ng/ml
test-readout: fraction unbound

Enquiry: Using the record for `COC[C@@H](C)n1c(C2CCOCC2)nc2cnc3cc(-c4c(C)noc4C)c(OC)cc3c21` , report its fraction unbound.
Return: 0.1

---

target: Bromodomain-containing protein 4 (Homo sapiens, UniProt O60885); experiment: Inhibition of BRD4 in human PBMC assessed as reduction in LPS-induced IL-6 secretion incubated for 18 to 24 hrs by MSD assay
test-readout: pIC50
pIC50 is a log-scale quantity: -log10 of the concentration expressed in molar.

Enquiry: Using the record for COCc1nc2cnc3cc(-c4c(C)noc4C)c(OC)cc3c2n1C(C)COC (racemic) , report its pIC50.
Return: 6.20

Enquiry: Using the record for `COCCNc1nc2cnc3cc(-c4c(C)noc4C)c(OC)cc3c2n1Cc1ccccn1` , report its pIC50.
Return: 7.00

Enquiry: Using the record for `COc1cc2c(cc1-c1c(C)noc1C)ncc1[nH]c(=O)n(CC3CCOCC3)c12` , report its pIC50.
Return: 6.70

Enquiry: Using the record for `COC[C@@H](C)n1c(C2CCOCC2)nc2cnc3cc(-c4c(C)noc4C)c(OC)cc3c21` , report its pIC50.
Return: 7.00

Now for a further compound.
Enquiry: Using the record for `COc1cc2c(cc1-c1c(C)noc1C)ncc1[nH]c(=O)n(CC3CCN(C)CC3)c12` , report its pIC50.
Return: 5.50

---

settings: rat, hepatocytes, 2 h, 0.5 µM
Catalogue of compounds with associated CLint

Enquiry: Using the record for `COc1cc2c(cc1-c1c(C)noc1C)ncc1[nH]c(=O)n([C@H](C)c3ccccn3)c12` , report its CLint.
Return: < 0.86 mL/min/g liver

***
Enquiry: Using the record for `CCNC(=O)C[C@@H]1N=C(c2ccc(Cl)cc2)c2cc(OC)ccc2-n2c(C)nnc21` , report its CLint.
Return: < 0.86 mL/min/g liver

Enquiry: Using the record for `COC[C@@H](C)n1c(C2CCOCC2)nc2cnc3cc(-c4c(C)noc4C)c(OC)cc3c21` , report its CLint.
Return: < 0.86 mL/min/g liver

---

molecular target: Bromodomain-containing protein 4 (Homo sapiens); assay: Inhibition of BRD4 in human PBMC assessed as reduction in LPS-induced IL-6 secretion incubated for 18 to 24 hrs by MSD assay
test-readout: pIC50
pIC50 is a log-scale quantity: -log10 of the concentration expressed in molar.

Examples from the recorded data:
Enquiry: Using the record for `COc1cc2c(cc1-c1c(C)noc1C)ncc1[nH]c(=O)n(Cc3ccccn3)c12` , report its pIC50.
Return: 6.30

Enquiry: Using the record for COc1cc2c(cc1-c1c(C)noc1C)ncc1nc(C3CCOCC3)n(C(C)C3CCOCC3)c12 (stereo not given) , report its pIC50.
Return: 7.00

***
Enquiry: Using the record for COc1cc2c(cc1-c1c(C)noc1C)ncc1[nH]c(=O)n(CC3CCCOC3)c12 (racemic) , report its pIC50.
Return: 5.90

Enquiry: Using the record for COCC(C)n1c(C2CCOCC2)nc2cnc3cc(-c4c(C)noc4C)c(OC)cc3c21 (racemic) , report its pIC50.
Return: 6.90

Enquiry: Using the record for CCCC(C)n1c(=O)[nH]c2cnc3cc(-c4c(C)noc4C)c(OC)cc3c21 (stereo not given) , report its pIC50.
Return: 6.90
